system: SK-MEL-2 melanoma; experiment: NCI tumour cell line growth inhibition, 48 h
PROPERTY_MEASURED: TGI

Find TGI (SK-MEL-2 melanoma) for the entry COc1cccc(C2c3cc4c(cc3OC(NNc3ccccc3)C2C)OCO4)c1OC (centres undefined)
> 100 µM

Find TGI (SK-MEL-2 melanoma) for the entry COc1ccc(N2C(=O)C3c4[nH]c5c(C)cccc5c4C4CCC(c5ccccc5)CC4C3C2=O)cc1 (centres undefined)
60.8 µM

Find TGI (SK-MEL-2 melanoma) for the entry Nc1nc2c(ncn2C2C=CC(COS(N)(=O)=O)C2)c(=O)[nH]1 (centres undefined)
> 100 µM

Find TGI (SK-MEL-2 melanoma) for the entry `COc1ccc(NC=O)c(C(=O)CCNC(C)=O)c1`
> 100 µM

Find TGI (SK-MEL-2 melanoma) for the entry `NC(N)=NS(=O)(=O)c1ccc(NC(=O)c2cccc3c(Nc4ccc(S(=O)(=O)N=C(N)N)cc4)c4ccccc4nc23)cc1`
> 100 µM

Find TGI (SK-MEL-2 melanoma) for the entry `COc1ccc(-n2cnc3c(NCC(=O)O)ncnc32)cc1`
> 100 µM

Find TGI (SK-MEL-2 melanoma) for the entry `CN(C)CCn1c(=O)nc2c3c(c([N+](=O)[O-])ccc31)Nc1ccc(O)cc1-2`
33.6 µM

Find TGI (SK-MEL-2 melanoma) for the entry `CN(C)CCNC(=O)c1cccc(NC(=O)c2ccccc2)c1[N+](=O)[O-]`
> 100 µM

Find TGI (SK-MEL-2 melanoma) for the entry `CC(C)CC(=O)[O-].N.N.N.N.N.[Co+3].[O-][Cl+3]([O-])([O-])[O-]`
> 100 µM

Find TGI (SK-MEL-2 melanoma) for the entry `S=c1[nH]nc(C23CC4CC(CC(C4)C2)C3)n1-c1ccc(Cl)cc1`
27.9 µM

Find TGI (SK-MEL-2 melanoma) for the entry `CCCCC(=O)Nc1ccc2cc(C(=O)OC)c(Cl)nc2n1`
> 100 µM

Find TGI (SK-MEL-2 melanoma) for the entry `CC1(C)CC(/C=C2/OC(=O)c3ccccc32)=C(C(N)=O)C(=O)O1`
> 100 µM

Find TGI (SK-MEL-2 melanoma) for the entry CC12C=C[C@]3(CC[C@@H]4[C@@](C)(CO)CCC[C@]4(C)C3CC1)C2 (some centres undefined)
43.2 µM

Find TGI (SK-MEL-2 melanoma) for the entry O=c1cc(O)ccn1C1C=C(CO)C(O)C1O (centres undefined)
> 625 µM

* * *

test system: KM12 colon; test: NCI tumour cell line growth inhibition, 48 h
PROPERTY_MEASURED: TGI

Recorded TGI for `CCc1cccc(C)c1NC(=O)CCc1nnc(SC)o1` , please?
> 100 µM

Recorded TGI for `Cc1cc(C)nc(NS(=O)(=O)c2ccc(Nc3c4ccccc4nc4c(C(=O)N5CCN(CCO)CC5)ccc(Cl)c34)cc2)n1` , please?
> 100 µM

Recorded TGI for `Cc1ccc(-n2c(=S)[nH]c3ccc(Br)cc3c2=O)cc1` , please?
> 100 µM

Recorded TGI for `Cc1ccc(S(=O)(=O)/N=C(\NO)Nc2ccc(Cl)c(Cl)c2)cc1` , please?
25.4 µM

Recorded TGI for `CNc1nc(N)cc(=O)[nH]1` , please?
> 100 µM

* * *

tested on: SF-268 CNS; assay: NCI tumour cell line growth inhibition, 48 h
Would you mind telling me the reported TGI of each entry?

Find TGI (SF-268 CNS) for the entry `NC(=O)c1ccc(NCC2=CC(=O)C=CC2=O)cc1`
50.9 µM

Find TGI (SF-268 CNS) for the entry `O=C(Cc1ccc(OCc2ccccc2)cc1)NCc1ccc2c(c1)OCO2`
> 100 µM

Find TGI (SF-268 CNS) for the entry `CCO/C(O)=C(/C(=N)N1CCOCC1)C(=O)Nc1cccc(Cl)c1`
> 100 µM

Find TGI (SF-268 CNS) for the entry `Nc1nnnn1NC(=O)NCCCl`
> 10 µM

Find TGI (SF-268 CNS) for the entry CC(=O)OCC1OC(n2c(-c3ccc(Cl)cc3)cc(-c3ccccc3)c(C#N)c2=S)C(OC(C)=O)C(OC(C)=O)C1OC(C)=O (stereo not given)
25.6 µM

Find TGI (SF-268 CNS) for the entry `COc1nc2ncc([C@@H](O)[C@H](O)CO)nc2c(=O)n1C`
> 100 µM

Find TGI (SF-268 CNS) for the entry `COc1cccc(C=O)c1[O-].COc1cccc(C=O)c1[O-].[Cu+2]`
35.3 µM

Find TGI (SF-268 CNS) for the entry `Nc1c(C(=O)c2cccc(-c3ccncc3)c2)cnn1-c1ccc(F)cc1`
> 25 µM

Find TGI (SF-268 CNS) for the entry `N=c1c2ccccc2nc2oc3ccccc3n12`
28 µM

Find TGI (SF-268 CNS) for the entry `CC(C)CNC(=O)c1ccc(NC(=O)N(CC(C)C)C(=O)c2ccc(N)c(OCCCN)c2)c(OCCCN=C(N)N)c1`
> 62.5 µM
